Collected growth inhibition values appear next to each entry.
test: NCI Yeast Anticancer Drug Screen. Data for the mlh1 rad18 strain (AID 175); details: S. cerevisiae mlh1 rad18 strain growth inhibition; at 50.0 µM; active compounds read high
This is part of a sample that, as a whole, favours compounds with a hit. Of some 79,000 tested, about 15% had one in any assay.
Respond with the bare value in %.

Some entries whose results are on file:
- smiles.structure: "CC1=NN(c2ccccc2)C(=O)C1(Br)Br"
  growth inhibition / %: 93.3
- smiles.structure: "CCCCCCCCCCCC1=NCCCN1CCCC"
  growth inhibition / %: 95.3

Now for the molecule whose growth inhibition we want.
Tell me the measured growth inhibition of Cc1nc([N+](=O)[O-])c(Sc2nncc(-c3ccccc3)n2)n1C , please.
97.5

---

assay: NCI Yeast Anticancer Drug Screen. Data for the sgs1 mgt1 strain (AID 161);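 also: 0% = growth of cultures given vehicle only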; conditions: S. cerevisiae sgs1 mgt1 strain, at 50.0 µM (retest, dose inferred, filed as 5.0), active compounds read high
The panel holds about 79,000 compounds, 15% with a hit somewhere; the sample as a whole holds those more often. The source made the active and inactive calls. Rule as the data show it: active = growth inhibition above about 70%; inactive = the rest.
Collected growth inhibition values appear next to each entry.

Some entries whose results are on file:
- smiles.structure: "O=C1/C(=C\\c2ccc([N+](=O)[O-])cc2)CS(=O)(=O)C/C1=C/c1ccc([N+](=O)[O-])cc1"
  growth inhibition: "96% (active)"
- smiles.structure: "CCC(=O)c1ccc([N+](=O)[O-])o1"
  growth inhibition: "100% (active)"
- smiles.structure: "Nc1cc(-c2ccccc2)ccc1O"
  growth inhibition: "37% (inactive)"

Now for the compound whose growth inhibition we want.
Tell me the measured growth inhibition of Cc1cc(O)c(O)c(C(C)(C)CC(C)(C)C)c1 , please.
100% (active)

---

assay: NCI Yeast Anticancer Drug Screen. Data for the bub3 strain (AID 167); conditions: S. cerevisiae bub3 mutant strain, at 50.0 µM (retest, dose inferred, filed as 5.0), active compounds read high
Compounds without any hit were thinned out: in the full panel of roughly 79,000, 15% have a hit.
result.type: growth inhibition (%)
Respond with the bare value in %.

Some entries whose results are on file:
- compound: "Nc1ccc(-c2ccc(N)c(S(=O)(=O)O)c2)cc1S(=O)(=O)O"
  unit.spec: "%"
  growth inhibition: 15
- compound: "Cc1cc(I)nc2ccccc12"
  unit.spec: "%"
  growth inhibition: -13

Tell me the measured growth inhibition of CCOC(=O)C1=C(C(=O)c2ccccc2)C(c2cccc([N+](=O)[O-])c2)C(C(=O)c2ccccc2)=C(C(=O)OCC)N1 , please.
63

And then COc1cc2c(c(OC)c1OC)-c1ccc(NCc3ccccc3)c(=O)cc1[C@@H](NC(C)=O)CC2 , what is it?
88

And then Nc1nc(-c2ccccc2)nc(N)c1N=O , what is it?
97

And then CN(C)c1cc(N)c(Cc2c(N)cc(N(C)C)cc2Cl)c(Cl)c1 , what is it?
97

And then CCSc1nc2ccccc2o1 , what is it?
-2

And then CC(C)CNC(=O)C(C)O (stereo not given) , what is it?
7

---

assay: NCI Yeast Anticancer Drug Screen. Data for the mec2-1 strain (AID 157); details: S. cerevisiae mec2-1 strain, at 50.0 µM, active compounds read high
This is part of a sample that, as a whole, favours compounds with a hit. Of some 79,000 tested, about 15% had one in any assay.
result.type: growth inhibition (%)
Respond with the bare value in %.

Tell me the measured growth inhibition of N#CC1c2ccccc2C=CN1C(=O)CCCl (stereo unspecified) , please.
34.2

And then CCCCCCCCCCCC[N+]1(CCCCCCCCCCCC)CCCC(C)C1 (stereo unspecified) , what is it?
91.3

And then Cc1nc(Sc2nc3ccc([N+](=O)[O-])cc3s2)sc1C , what is it?
86.5

And then COc1cc(/C=C/C(=O)CC(=O)/C=C/c2ccc(O)c(OC)c2)ccc1O , what is it?
87.1

And then O=[N+]([O-])CC(O)c1ccccc1 (stereo unspecified) , what is it?
52.2

And then CCCCC(CCc1ccc([N+](=O)[O-])cc1)(C(C)=O)C(=O)OCC (stereo unspecified) , what is it?
13.1

And then CC1(C)CCCC2=C1C(=O)N(SC(Cl)(Cl)Cl)C2=O , what is it?
93.1

And then NC(CS/C(Cl)=C/Cl)C(=O)O (stereo unspecified) , what is it?
93.8

And then O=C1Nc2ccc(Br)cc2C1=O , what is it?
99.7

And then Oc1ccc(Cl)cc1Cc1cc(Cl)ccc1O , what is it?
10.3

And then C=C(CO)C(=O)OC1CC(=C)C2CC(O)C(C)C2C2OC(=O)C(=C)C12 (stereo unspecified) , what is it?
52.5

---

experiment: NCI Yeast Anticancer Drug Screen. Data for the sgs1 mgt1 strain (AID 161);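 also: 0% = growth of cultures given vehicle only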; settings: S. cerevisiae sgs1 mgt1 strain, at 50.0 µM, active compounds read high
This is part of a sample that, as a whole, favours compounds with a hit. Of some 79,000 tested, about 15% had one in any assay.
result.type: growth inhibition (%)
Respond with the bare value in %.

Some entries whose results are on file:
- compound: "COc1cc(N(CCC#N)CCC#N)ccc1/C(N=Nc1ccc(C(=O)O)cc1)=N/NC(=O)c1cc(Br)ccc1O"
  number: 25.7
- compound: "Cc1oc2c(C)c3oc(=O)cc(C)c3cc2c1CCl"
  number: 87
- compound: "O=C(c1ccc(O)c(Br)c1)c1ccc(O)c(Br)c1"
  number: 64.4

Now for the compound whose growth inhibition we want.
Tell me the measured growth inhibition of CCCCCCCCCCCC[n+]1ccc(CCCCCCCCC)cc1 , please.
99.5

---

experiment: NCI Yeast Anticancer Drug Screen. Data for the sgs1 mgt1 strain (AID 161);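 also: 0% = growth of cultures given vehicle only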; details: S. cerevisiae sgs1 mgt1 strain, at 5.0 µM (retest, dose inferred, filed as 0.5), active compounds read high
The panel holds about 79,000 compounds, 15% with a hit somewhere; the sample as a whole holds those more often. The source made the active and inactive calls. Rule as the data show it: active = growth inhibition above about 70%; inactive = the rest.
result.type: growth inhibition

Some entries whose results are on file:
- compound: "C/C(=N\\NC(=S)N1CCC1)c1ccccn1"
  result: "92% (active)"
- compound: "O=C(/C=C/c1ccccc1)c1ccccc1O"
  result: "4% (inactive)"
- compound: "CN(C)c1ccc(/C=C/c2nccc3ccccc23)cc1"
  result: "3% (inactive)"
- compound: "OC(Cc1cc(CC(O)(C(F)(F)F)C(F)(F)F)nc(CC(O)(C(F)(F)F)C(F)(F)F)c1)(C(F)(F)F)C(F)(F)F"
  result: "-9% (inactive)"
- compound: "O=C(O)/C=C\\C(=O)NNc1ccccc1"
  result: "5% (inactive)"

Tell me the measured growth inhibition of CC1OC(OC2C(OC3CCC4(C)C(CCC5(C)C4CC=C4C6CC(C)(C)CCC6(C(=O)O)CCC45C)C3(C)CO)OCC(O)C2O)C(O)C(O)C1O (stereo unspecified) , please.
95% (active)

And then CC1(C=O)CCC23COC4(CCC5C6(C)CCC(OC7OCC(OC8OC(CO)C(O)C(OC9OC(CO)C(O)C(O)C9O)C8OC8OCC(O)C(O)C8O)C(O)C7OC7OC(CO)C(O)C(O)C7O)C(C)(C)C6CCC5(C)C4(C)CC2O)C3C1 (stereo unspecified) , what is it?
9% (inactive)

And then CCCCCCCCCCCC[n+]1ccccc1 (tested in a mixture with another compound) , what is it?
31% (inactive)

And then C=CC(=O)OCCOCc1ccccc1 , what is it?
-1% (inactive)

And then Cc1ccccc1OCc1cccc(Cl)c1 , what is it?
4% (inactive)

---

assay: NCI Yeast Anticancer Drug Screen. Data for the mec2-1 strain (AID 157); conditions: S. cerevisiae mec2-1 strain, at 50.0 µM (retest, dose inferred, filed as 5.0)
The panel holds about 79,000 compounds, 15% with a hit somewhere; the sample as a whole holds those more often. Calls of active or inactive are those of the source. Cut-off read from the data, not from the text of the source: active = growth inhibition above about 70%; inactive = the rest.
Your response should consist of one outcome taken from y for active, n for inactive

As a guide, the following entries are already answered.
- molecule: "COc1ccc(/C(C#N)=C/c2cccc(N)c2)cc1"
  classification: "n"
- molecule: "CCCCCC[C@@H](O)C/C=C\\CCCCCCCC(=O)OCCOC"
  classification: "n"
- molecule: "Clc1ccc(-n2ncc3c(Cl)nc(Cl)nc32)cc1"
  classification: "y"
- molecule: "C/C(=N\\NC(=S)N(C)C)c1ccccn1"
  classification: "y"
- molecule: "CCCOS(=O)(=O)c1ccccc1"
  classification: "n"
- molecule: "Cc1ccc(N2C(=O)C=CC2=O)cc1"
  classification: "y"

Given S=C=Nc1ccc(N2CCOCC2)cc1 , state the outcome it received in this test.
y

And then O=C(Nc1ccc(Cl)c(Cl)c1)OCc1ccco1 , what is it?
n

And then CN1CCC(CN2c3ccccc3Sc3ccccc32)C1 (stereo not given) , what is it?
n

And then Oc1c(Cl)cc(Cl)cc1C=NCC1CCC(CN=Cc2cc(Cl)cc(Cl)c2O)CC1 (stereo not given) , what is it?
y

And then CCC(C)(O)Cc1ccc(Cl)cc1 (stereo not given) , what is it?
n

And then CCCN(CCC)C(=O)c1ccc(C)cc1 , what is it?
n

And then OC(CSc1ccccc1)CN1CCN(c2ccc(Cl)cc2)CC1 (stereo not given) , what is it?
n
